folding enthalpy values by entry
Assay: folding enthalpy; higher = less favourable; fluorescence melt of hairpins on a sequencing array, two-state fit
Settings: sodium 0.088 M

{"columns": ["chainSequence", "folding enthalpy (kcal/mol)"],
 "data": [
  ["GCCAAAGCGAAAGCTGGC (((..(((....))))))", -26.1],
  ["GCGTTTGCACGC ((((....))))", -19.1],
  ["GCGGCGCGAAAGCGAAGC ((..(((....)))..))", -29],
  ["GCACGCGAAAGCGATGC ((((((....))).)))", -21.3],
  ["GTAGGCGCGAAAGCGTAC (((..(((....))))))", -9.85],
  ["GATCAAACGGTTGATC ((((((....))))))", -36],
  ["GCGCCCGAAAGGGGCCGC ((((((....)))..)))", -16.4]
]}

---

A collection of sequences and their measured folding enthalpy
Test: folding enthalpy; higher = less favourable; fluorescence melt of hairpins on a sequencing array, two-state fit
Conditions: sodium 0.088 M
measurementName: folding enthalpy

{"columns": ["chainSequence", "measurementName", "valueObserved"],
 "data": [
  ["GGTTGCGGAAACGTAACC ((((.((....)).))))", "folding enthalpy", "-47.9 kcal/mol"],
  ["GCGTGGGGAAACTCGCGC (((.(.(....).).)))", "folding enthalpy", "-35.6 kcal/mol"],
  ["GATCGACGAAAGTCCATC (((.(((....))).)))", "folding enthalpy", "-15.5 kcal/mol"],
  ["GGATTCCCGAAAGGGTCC (((..(((....))))))", "folding enthalpy", "-14.6 kcal/mol"],
  ["GCGTCACACGC ((((...))))", "folding enthalpy", "-23.6 kcal/mol"],
  ["GTACTCGAAAGAGATAC ((((((....))).)))", "folding enthalpy", "-18 kcal/mol"],
  ["GTTAGTGCGAAAGCAAAC (((..(((....))))))", "folding enthalpy", "-10.6 kcal/mol"],
  ["GTACTCGGAAACGAGTGC (.(((((....))))).)", "folding enthalpy", "-41 kcal/mol"],
  ["TGGACGAAAGTCCA (((((....)))))", "folding enthalpy", "-19.4 kcal/mol"],
  ["CGGTCGGAAACGACGCCG ((((((....)))..)))", "folding enthalpy", "-11.7 kcal/mol"],
  ["GAAACCCGAAAGGGTTC (((.(((....))))))", "folding enthalpy", "-10.2 kcal/mol"],
  ["GCGCTGCGAAAGCAAAGC ((..(((....)))..))", "folding enthalpy", "-17.7 kcal/mol"],
  ["GCGTTTGGAAACAAACAC (.(((((....))))).)", "folding enthalpy", "-12.8 kcal/mol"],
  ["GAATCCGAAAGGAATTC ((((((....))).)))", "folding enthalpy", "-23.6 kcal/mol"],
  ["CCTTAGAAATAAGG (((((....)))))", "folding enthalpy", "-10.5 kcal/mol"],
  ["GATCCTTGTTAGGATC ((((((....))))))", "folding enthalpy", "-34.8 kcal/mol"],
  ["GGAAGGTCGAAAGACTCC (((..(((....))))))", "folding enthalpy", "-13.8 kcal/mol"],
  ["GATCTCTACGGAGATC ((((((....))))))", "folding enthalpy", "-36 kcal/mol"],
  ["GATGTCCGAAAGGAATC (((.(((....))))))", "folding enthalpy", "-13.5 kcal/mol"],
  ["GCGCTGCGAAAGCACCGC (((.(((....))).)))", "folding enthalpy", "-46.8 kcal/mol"],
  ["TTCATGAAAATGAA (((((....)))))", "folding enthalpy", "-9.75 kcal/mol"],
  ["GATCGGGGGACCGATC ((((((....))))))", "folding enthalpy", "-36.2 kcal/mol"],
  ["GCTCAGCGAAAGCATAGC (((..((....))..)))", "folding enthalpy", "-16 kcal/mol"],
  ["GCATGCGAAAGCAAGTGC ((((((....)))..)))", "folding enthalpy", "-17.8 kcal/mol"],
  ["GGCATCGGAAACGGTGTC (.((.((....)).)).)", "folding enthalpy", "-25.7 kcal/mol"],
  ["GCGGCACCGAAAGGTCGC (((..(((....))))))", "folding enthalpy", "-21.1 kcal/mol"],
  ["GCGCGTCGAAAGACTCGC (((.(((....))).)))", "folding enthalpy", "-38.7 kcal/mol"],
  ["GCCGCGCGAAAGCGGAGC ((..(((....)))..))", "folding enthalpy", "-12.8 kcal/mol"],
  ["GGGGTCGAAAGACACCC ((((((....))).)))", "folding enthalpy", "-18.2 kcal/mol"],
  ["GTGCGTCGAAAGACCAC (((.(((....))))))", "folding enthalpy", "-29.6 kcal/mol"],
  ["GCAAACGGAAACGCTTGC ((((.((....)).))))", "folding enthalpy", "-35.1 kcal/mol"],
  ["GGTCTTGAAAAAGACC ((((((....))))))", "folding enthalpy", "-40.4 kcal/mol"],
  ["GATGGCGGAAACGTCGTC ((.(.((....)).).))", "folding enthalpy", "-29.6 kcal/mol"],
  ["GTGACCGAAAGGTCCCAC ((((((....)))..)))", "folding enthalpy", "-8.57 kcal/mol"],
  ["GTTCACGCGAAAGCGAAC (((..(((....))))))", "folding enthalpy", "-10.2 kcal/mol"],
  ["GATTCCGAAAGGACAATC ((((((....)))..)))", "folding enthalpy", "-13.8 kcal/mol"],
  ["GCCACTGGAAACAATGGC ((((.((....)).))))", "folding enthalpy", "-26.7 kcal/mol"],
  ["GTTCACGAAAGTGGAAAC ((((((....)))..)))", "folding enthalpy", "-13.4 kcal/mol"],
  ["GGGGACGGAAACGCCCCC ((((.((....)).))))", "folding enthalpy", "-26.1 kcal/mol"],
  ["GATCCCAGTGGGATC ((((((...))))))", "folding enthalpy", "-40.6 kcal/mol"],
  ["GATCATTTAAATGATC ((((((....))))))", "folding enthalpy", "-46.3 kcal/mol"],
  ["GGTAATGGAAACACTACC ((((.((....)).))))", "folding enthalpy", "-15.4 kcal/mol"],
  ["GGGTCGCGAAAGCGCCCC (((.(((....))).)))", "folding enthalpy", "-18.6 kcal/mol"],
  ["GATCGAATGCTCGATC ((((((....))))))", "folding enthalpy", "-49.6 kcal/mol"]
]}

---

Assay: folding enthalpy; higher = less favourable; fluorescence melt of hairpins on a sequencing array, two-state fit
Details: sodium 0.088 M
measurementName: folding enthalpy (kcal/mol)

{"columns": ["chainSequence", "measurementName", "readingUnit", "valueObserved"],
 "data": [
  ["GTGGGACCGAAAGGTCAC (((..(((....))))))", "folding enthalpy", "kcal/mol", -19.5],
  ["GGACGCCGAAAGGCTCC (((.(((....))))))", "folding enthalpy", "kcal/mol", -19.7],
  ["GATCGAATGATCGATC ((((((....))))))", "folding enthalpy", "kcal/mol", -19.6],
  ["GTTATCGGAAACGACAAC (((.(((....))).)))", "folding enthalpy", "kcal/mol", -19.8],
  ["GTTGAGGGAAACCTCAAC (((((((....)))))))", "folding enthalpy", "kcal/mol", -42.2],
  ["GACATAGAAATATGTC ((((((....))))))", "folding enthalpy", "kcal/mol", -30],
  ["GCTAAGGGAAACCCTAGC ((((.((....)).))))", "folding enthalpy", "kcal/mol", -32.5],
  ["GGTTTCGAAAGAACACC ((((((....))).)))", "folding enthalpy", "kcal/mol", -26.8],
  ["GTGAGCCGAAAGGCCAC (((.(((....))))))", "folding enthalpy", "kcal/mol", -18.7],
  ["GTACAGACGAAAGTCTAC (((..(((....))))))", "folding enthalpy", "kcal/mol", -11.5],
  ["GTTGCCGCGAAAGCGAAC (((..(((....))))))", "folding enthalpy", "kcal/mol", -12.6],
  ["GCAATTGGAAACAATTGC (((((((....)))))))", "folding enthalpy", "kcal/mol", -43.9],
  ["GGTGGCGAAAGCCAGACC ((((((....)))..)))", "folding enthalpy", "kcal/mol", -12.6],
  ["GATCAAGATTTTGATC ((((((....))))))", "folding enthalpy", "kcal/mol", -28.5],
  ["GCGACTGTCGC ((((...))))", "folding enthalpy", "kcal/mol", -33],
  ["GATCCTTGGGAGGATC ((((((....))))))", "folding enthalpy", "kcal/mol", -43.2]
]}
